As shown below, each of these binders has a reported Ratio hCT/hAmylin funct. value.
Molecular target: T1, human calcitonin receptor (human, UniProt P30988 25-474)
T1 sequence (looked up): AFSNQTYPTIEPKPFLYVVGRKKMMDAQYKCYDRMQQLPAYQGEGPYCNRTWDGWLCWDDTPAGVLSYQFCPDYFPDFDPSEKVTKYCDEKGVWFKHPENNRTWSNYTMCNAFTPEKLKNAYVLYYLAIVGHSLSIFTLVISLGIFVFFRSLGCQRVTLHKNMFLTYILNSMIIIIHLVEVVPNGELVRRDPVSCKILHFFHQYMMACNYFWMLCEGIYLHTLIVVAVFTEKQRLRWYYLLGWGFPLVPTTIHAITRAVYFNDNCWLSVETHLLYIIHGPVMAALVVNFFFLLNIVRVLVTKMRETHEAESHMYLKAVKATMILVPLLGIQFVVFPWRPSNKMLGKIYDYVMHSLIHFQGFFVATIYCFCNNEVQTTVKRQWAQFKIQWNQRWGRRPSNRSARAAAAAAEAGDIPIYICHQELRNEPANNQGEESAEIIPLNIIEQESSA
Experiment: cell-based or functional assay
Numbered stars: 1 amine (or outer) side, 2 acyl side, 3 side chain; on linkers, the order of the positions; unused ones are H or OH. Bridge positions count the residues as written; N and C are the ends. Side chains are listed from the residue outwards. Ends that are not written are not given here. * marks the point of attachment. C20 diacid = O=C(O)CCCCCCCCCCCCCCCCCCC(=O)*; C18 diacid = O=C(O)CCCCCCCCCCCCCCCCC(=O)*; C16 diacid = O=C(O)CCCCCCCCCCCCCCC(=O)*; γGlu = O=C(O)[C@H](CCC(=O)[*:2])N[*:1]; AEEA = NCCOCCOCC(=O)O
Quantity: Ratio hCT/hAmylin funct.

| Binder | Recorded Number |
| --- | --- |
| K([AEEA-AEEA-γGlu-C20 diacid])CNTATCATQRLANFLRHSSPNFGAIPSSTNVGHNTY-NH2 (disulfide 2-7 (inferred), also called compound 97) | 33 |
| K([γGlu-γGlu-C20 diacid])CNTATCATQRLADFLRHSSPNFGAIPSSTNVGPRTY-NH2 (disulfide 2-7 (inferred), also called compound 130) | 44.9 |
| K([AEEA-C20 diacid])CNTATCATQRLANFLRHSSPNFGAIPSSTNVGHNTY-NH2 (disulfide 2-7 (inferred), also called compound 91) [N^ε1-[2-[2-[2-(19-carboxynonadecanoylamino)ethoxy]ethoxy]acetyl]-[Arg17,Pro21,Pro27,His34]-h-amylin] | 36.9 |
| K([AEEA-AEEA-γGlu-C20 diacid])CNTATCATQRLANFLRHSSPNFGAIPSSTNVGRNTY-NH2 (disulfide 2-7 (inferred), also called compound 95) | 33 |
| K([AEEA-AEEA-γGlu-C20 diacid])CNTATCATQRLANFLRHSSPNFGAIPSSTPVGSNTY-NH2 (disulfide 2-7 (inferred), also called compound 96) | 21 |
| K([γGlu-C18 diacid])CNTATCATQRLANFLRHSSPNFGAIPSSTNVGHNTY-NH2 (disulfide 2-7 (inferred)) [N^ε1-[(4S)-4-carboxy-4-(17-carboxyheptadecanoylamino)butanoyl]-[Arg17,Pro21,Pro27,His34]-h-amylin] | 60.9 |
| K([γGlu-C16 diacid])CNTATCATQRLANFLRHSSPNFGAIPSSTNVGHNTY-NH2 (disulfide 2-7 (inferred)) [N^ε1-[(4S)-4-carboxy-4-(15-carboxypentadecanoylamino)butanoyl]-[Arg17,Pro21,Pro27,His34]-h-amylin] | 65.1 |
| K([γGlu-γGlu-C20 diacid])CNTATCATQRLAEFLRHSSNNPGAILSSTNVGPETY-NH2 (disulfide 2-7 (inferred)) | 17.3 |
| K([γGlu-γGlu-C20 diacid])CNTATCATQRLANFLRHSSPNFGAIPSSTPVGPRTY-NH2 (disulfide 2-7 (inferred)) | 26 |
